Value source: the supplement of paper PMC10307832

Provide the recorded relative viability for the entries that follow.
- System: NCI-H838
- Protocol Description: relative viability (nuclei count vs DMSO), 5 days (fraction); higher = more cells survive
- Experimental Context: first compound 1 µM
Answers are plain numbers.

Worked cases, relative viability given:
[[record]]
compound = "NC(=O)Nc1cc(-c2cccc(F)c2)sc1C(=O)N[C@H]1CCCNC1 [AZD7762] + CC(=O)Nc1cccc(-n2c(=O)n(C3CC3)c(=O)c3c(Nc4ccc(I)cc4F)n(C)c(=O)c(C)c32)c1 [Trametinib] (partner 0.02 µM)"
target = "NCI-H838"
value_reported = 0.305

[[record]]
compound = "NC(=O)Nc1cc(-c2cccc(F)c2)sc1C(=O)N[C@H]1CCCNC1 [AZD7762] + O=C(CCCCCCC(=O)Nc1ccccc1)NO [Vorinostat] (partner 1 µM)"
target = "NCI-H838"
value_reported = 0.272


List relative viability for every entry below, keeping the order given.
1. NC(=O)Nc1cc(-c2cccc(F)c2)sc1C(=O)N[C@H]1CCCNC1 [AZD7762] + Nc1ncn([C@H]2C[C@H](O)[C@@H](CO)O2)c(=O)n1 [Decitabine] (partner 2 µM)
2. NC(=O)Nc1cc(-c2cccc(F)c2)sc1C(=O)N[C@H]1CCCNC1 [AZD7762] + N=C(N)NC(=N)NCCc1ccccc1 [Phenformin] (partner 250 µM)

Found:
1: 0.283; 2: 0.164
